# METHOD_SUMMARY: melting temperature; fluorescence melt of hairpins on a sequencing array, two-state fit, raised by 9.35 °C to match UV melts
# PARTICULARS: sodium 0.088 M
QUANTITY_MEASURED: Tm (°C)
The figure you give is taken to be in °C; do not add the unit.

What value of Tm has been recorded for this entry: GAATGTGGAAACACGTTC (((.(((....))).))) 47.8

What value of Tm has been recorded for this entry: GCGCAAACGAAAGTTCGC (((..(((....)))))) 46.7

What value of Tm has been recorded for this entry: GATCACTAAGGTGATC ((((((....)))))) 57

What value of Tm has been recorded for this entry: GATCAACGACTTGATC ((((((....)))))) 40.7

What value of Tm has been recorded for this entry: CGTTCGGAAACGAGACG ((((((....))).))) 39

What value of Tm has been recorded for this entry: GCCGTGCGAAAGCGCAGC ((.(.((....)).).)) 49.1

----------
# METHOD_SUMMARY: melting temperature; fluorescence melt of hairpins on a sequencing array, two-state fit, raised by 9.35 °C to match UV melts
# PARTICULARS: sodium 0.088 M
QUANTITY_MEASURED: Tm (°C)
The figure you give is taken to be in °C; do not add the unit.

What value of Tm has been recorded for this entry: GTGGTTGGAAACAACTGC (..((((....))))..) 43.4

What value of Tm has been recorded for this entry: GGCAACGAAAGTTCGGCC ((((((....)))..))) 44.4

What value of Tm has been recorded for this entry: GATCGTAGTTACGATC ((((((....)))))) 56.8

What value of Tm has been recorded for this entry: GCAATCGAAAGATCGTGC ((((((....)))..))) 28

What value of Tm has been recorded for this entry: GAGTATACGAAAGTACTC (((..(((....)))))) 34

What value of Tm has been recorded for this entry: GATCTAGTTTTAGATC ((((((....)))))) 42.3

----------
# METHOD_SUMMARY: folding enthalpy; higher = less favourable; fluorescence melt of hairpins on a sequencing array, two-state fit
# PARTICULARS: sodium 0.088 M
Label yes (1) when folding enthalpy is at or above -30 kcal/mol; otherwise label no (0).

Is reported folding enthalpy greater than or equal to -30 kcal/mol here: GATTTGGGAAACTAAATC (((((.(....).))))) yes (1)

Is reported folding enthalpy greater than or equal to -30 kcal/mol here: GATCAGGATGCTGATC ((((((....)))))) no (0)

Is reported folding enthalpy greater than or equal to -30 kcal/mol here: GCCCACGAAAGTGTCGGC ((((((....)))..))) yes (1)

Is reported folding enthalpy greater than or equal to -30 kcal/mol here: GATCCGCGGCGGATC ((((((...)))))) no (0)

Is reported folding enthalpy greater than or equal to -30 kcal/mol here: GCTCTGCGAAAGCCGCGC ((.(.((....)).).)) yes (1)

Is reported folding enthalpy greater than or equal to -30 kcal/mol here: CGGGTCCGGAAACGGCCG (((..(((....)))))) yes (1)

Is reported folding enthalpy greater than or equal to -30 kcal/mol here: GTGCACGAAAGTGCCAC ((((((....))).))) yes (1)

Is reported folding enthalpy greater than or equal to -30 kcal/mol here: GCTGTACGAAAGTAAGC (((.(((....)))))) yes (1)

Is reported folding enthalpy greater than or equal to -30 kcal/mol here: GGTTACGAAAGTAGGACC ((((((....)))..))) yes (1)

Is reported folding enthalpy greater than or equal to -30 kcal/mol here: GAGTCCGAAAGGAACCTC ((((((....)))..))) yes (1)

Is reported folding enthalpy greater than or equal to -30 kcal/mol here: GATTGAGGAAACTCGATC (((.(((....))).))) no (0)

Is reported folding enthalpy greater than or equal to -30 kcal/mol here: GGACGTGGAAACATGTCC ((((.((....)).)))) no (0)

These entries and their values trace back to the array DNA melting data of Ke et al. (doi:10.1101/2024.01.08.574731).
